target: MST4 (human)
assay.comment: radiometric filter-binding kinase assay, Kinase HotSpot
assay.conditions: compound 0.5 µM; ATP 10 µM
readout.name: residual activity

structure.string	endpoint.result
Cc1cncc2cccc(S(=O)(=O)N3CCCN(C(=O)CN)C[C@H]3C)c12	107%
Cc1nc(-c2ccccc2)c(-c2ccncc2)o1	114%
O=C1Nc2ccc(Br)cc2/C1=C\c1cc2c([nH]1)CCCC2	87.9%
COc1ccc2c(c1)c(C1=C(c3c[nH]c4ccccc34)C(=O)NC1=O)cn2CCCN(C)C	40.4%
O=C(c1cc2cc(O)ccc2[nH]1)c1cc2cc(O)ccc2[nH]1	101%
CC(C)(C)c1cc(C=C(C#N)C#N)cc(Br)c1O	95.2%
N#C/C(=C\c1ccc(O)c(O)c1)C(=O)NCc1ccccc1	103%
COc1ccc(Cl)cc1NC(=O)Nc1cc(C)nc2ccccc12	77.6%
COc1cc(Nc2c(C#N)cnc3cc(OCCCN4CCN(C)CC4)c(OC)cc23)c(Cl)cc1Cl	5.9%

* * *

target: FGFR2 (human) (UniProt P21802)
Sequence (P21802 whole entry, looked up): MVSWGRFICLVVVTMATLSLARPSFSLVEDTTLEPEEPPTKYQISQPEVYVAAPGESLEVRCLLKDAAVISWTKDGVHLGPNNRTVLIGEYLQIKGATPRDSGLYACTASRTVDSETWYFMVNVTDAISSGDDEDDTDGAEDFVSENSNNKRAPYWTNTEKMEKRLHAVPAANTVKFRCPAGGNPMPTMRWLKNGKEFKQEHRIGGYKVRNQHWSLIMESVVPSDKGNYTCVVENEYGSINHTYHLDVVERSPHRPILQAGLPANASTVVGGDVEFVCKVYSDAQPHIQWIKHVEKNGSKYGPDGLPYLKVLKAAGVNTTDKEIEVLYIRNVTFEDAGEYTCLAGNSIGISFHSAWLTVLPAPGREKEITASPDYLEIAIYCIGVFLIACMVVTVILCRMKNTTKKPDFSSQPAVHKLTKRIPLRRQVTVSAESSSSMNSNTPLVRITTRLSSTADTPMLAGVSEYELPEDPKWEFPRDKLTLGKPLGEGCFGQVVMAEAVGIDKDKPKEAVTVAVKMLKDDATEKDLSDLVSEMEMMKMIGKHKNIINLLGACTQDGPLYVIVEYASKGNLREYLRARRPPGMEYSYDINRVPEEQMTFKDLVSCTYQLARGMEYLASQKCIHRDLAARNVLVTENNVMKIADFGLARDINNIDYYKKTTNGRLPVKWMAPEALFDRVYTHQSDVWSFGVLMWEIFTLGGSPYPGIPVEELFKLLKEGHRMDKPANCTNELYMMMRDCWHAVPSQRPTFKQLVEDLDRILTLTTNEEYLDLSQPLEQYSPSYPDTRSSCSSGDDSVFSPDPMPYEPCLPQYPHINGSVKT
assay.comment: radiometric filter-binding kinase assay, Kinase HotSpot
assay.conditions: compound 0.5 µM; ATP 10 µM

structure.string	residual activity / %
N#C/C(=C\c1ccc(O)c(O)c1)C(=O)NCc1ccccc1	98.1
COc1ccc(Cl)cc1NC(=O)Nc1cc(C)nc2ccccc12	96.9
Cn1c2ccccc2c2c3c(c4c5ccccc5n(CCC#N)c4c21)CNC3=O	79.8
CN(C)S(=O)(=O)c1ccc2c(c1)/C(=C/c1cc3c([nH]1)CCCC3)C(=O)N2	49.3
CS(=O)(=O)CCNCc1ccc(-c2ccc3ncnc(Nc4ccc(OCc5cccc(F)c5)c(Cl)c4)c3c2)o1	96.4
CC(C)(C)c1cc(C=C(C#N)C#N)cc(Br)c1O	96.4
N#Cc1c[nH]c2c[nH]/c(=N\Cc3cccnc3)cc2/c1=N\c1ccc(F)c(Cl)c1	103
CN(C)c1ccc(/C=C2\C(=O)Nc3ccccc32)cc1	98.2
COc1ccc2c(c1)c(C1=C(c3c[nH]c4ccccc34)C(=O)NC1=O)cn2CCCN(C)C	90.7
COc1ccc2c(c1)/C(=C/c1cnc[nH]1)C(O)=N2	84
COc1cc2ncnc(Nc3ccc(Oc4ccccc4)cc3)c2cc1OC	93.7
C[C@@H]1CCN(C(=O)CC#N)C[C@@H]1N(C)c1ncnc2[nH]ccc12	91.7
O=C1Nc2ccc(Br)cc2/C1=C\c1cc2c([nH]1)CCCC2	87.4
Cc1cccc(-c2nc(C(C)(C)C)[nH]c2-c2ccc3c(c2)OCO3)n1	105
c1ccc2c(-c3ccncc3)c[nH]c2c1	105
COc1cc(Nc2c(C#N)cnc3cc(OCCCN4CCN(C)CC4)c(OC)cc23)c(Cl)cc1Cl	58.1
O=C1c2ccccc2-c2nc3nnnn3nc21	59.4
COc1ccc(C(=O)Nc2sc3c(c2C(N)=O)CCCC3)cc1OC	100
NC(=O)c1cccc(-c2cc(Nc3ccc(OC(F)(F)F)cc3)ncn2)c1	95.9
O=C1C(Cl)=C(N2C(=O)CCC2=O)C(=O)c2ccccc21	102
CCCCc1c(-c2ccc(OC)cc2)[nH]c2nccnc12	89.5
Cc1nc(-c2ccccc2)c(-c2ccncc2)o1	108
Ic1cccc(CSc2nnc(-c3ccncc3)o2)c1	101

* * *

target: LTK (human)
assay.comment: radiometric filter-binding kinase assay, Kinase HotSpot
assay.conditions: compound 0.5 µM; ATP 10 µM
Classify by measured residual activity: 1 (yes) if it is equal to or exceeds 90%, 0 (no) if it is smaller.

structure.string	label.class
CS(=O)(=O)CCNCc1ccc(-c2ccc3ncnc(Nc4ccc(OCc5cccc(F)c5)c(Cl)c4)c3c2)o1	1 (yes)
Cc1cn(-c2cc(NC(=O)c3ccc(C)c(Nc4nccc(-c5cccnc5)n4)c3)cc(C(F)(F)F)c2)cn1	1 (yes)
CCCCc1c(-c2ccc(OC)cc2)[nH]c2nccnc12	0 (no)
Cc1cccc(-c2nc(C(C)(C)C)[nH]c2-c2ccc3c(c2)OCO3)n1	1 (yes)
Cn1c2ccccc2c2c3c(c4c5ccccc5n(CCC#N)c4c21)CNC3=O	0 (no)
O=C1Nc2ccc(Br)cc2/C1=C\c1cc2c([nH]1)CCCC2	0 (no)
CN(C)S(=O)(=O)c1ccc2c(c1)/C(=C/c1cc3c([nH]1)CCCC3)C(=O)N2	0 (no)
COc1ccc(Cl)cc1NC(=O)Nc1cc(C)nc2ccccc12	0 (no)
COc1ccc2c(c1)c(C1=C(c3c[nH]c4ccccc34)C(=O)NC1=O)cn2CCCN(C)C	0 (no)
O=C1C(Cl)=C(N2C(=O)CCC2=O)C(=O)c2ccccc21	1 (yes)

* * *

Reported residual activity by item:
target: PRKCB2 (human)
assay.comment: radiometric filter-binding kinase assay, Kinase HotSpot
assay.conditions: compound 0.5 µM; ATP 10 µM

structure.string	target	measure.unit	residual activity
COc1ccc2c(c1)c(C1=C(c3c[nH]c4ccccc34)C(=O)NC1=O)cn2CCCN(C)C	PRKCB2 (human)	%	14.2
Ic1cccc(CSc2nnc(-c3ccncc3)o2)c1	PRKCB2 (human)	%	91.2
Fc1ccc(-c2nc3n(c2-c2ccncc2)CCS3)cc1	PRKCB2 (human)	%	87.2
CN(C)CCCn1cc(C2=C(c3c[nH]c4ccccc34)C(=O)NC2=O)c2ccccc21	PRKCB2 (human)	%	12.6
O=C(c1cc2cc(O)ccc2[nH]1)c1cc2cc(O)ccc2[nH]1	PRKCB2 (human)	%	98.9
Cc1cccc(-c2nc(C(C)(C)C)[nH]c2-c2ccc3c(c2)OCO3)n1	PRKCB2 (human)	%	99.9
CN(C)c1ccc(/C=C2\C(=O)Nc3ccccc32)cc1	PRKCB2 (human)	%	103
N#C/C(=C\c1ccc(O)c(O)c1)C(=O)NCc1ccccc1	PRKCB2 (human)	%	99.8

* * *

# residual activity annotations
target: UniProt:O75116
Sequence (O75116 whole entry, looked up): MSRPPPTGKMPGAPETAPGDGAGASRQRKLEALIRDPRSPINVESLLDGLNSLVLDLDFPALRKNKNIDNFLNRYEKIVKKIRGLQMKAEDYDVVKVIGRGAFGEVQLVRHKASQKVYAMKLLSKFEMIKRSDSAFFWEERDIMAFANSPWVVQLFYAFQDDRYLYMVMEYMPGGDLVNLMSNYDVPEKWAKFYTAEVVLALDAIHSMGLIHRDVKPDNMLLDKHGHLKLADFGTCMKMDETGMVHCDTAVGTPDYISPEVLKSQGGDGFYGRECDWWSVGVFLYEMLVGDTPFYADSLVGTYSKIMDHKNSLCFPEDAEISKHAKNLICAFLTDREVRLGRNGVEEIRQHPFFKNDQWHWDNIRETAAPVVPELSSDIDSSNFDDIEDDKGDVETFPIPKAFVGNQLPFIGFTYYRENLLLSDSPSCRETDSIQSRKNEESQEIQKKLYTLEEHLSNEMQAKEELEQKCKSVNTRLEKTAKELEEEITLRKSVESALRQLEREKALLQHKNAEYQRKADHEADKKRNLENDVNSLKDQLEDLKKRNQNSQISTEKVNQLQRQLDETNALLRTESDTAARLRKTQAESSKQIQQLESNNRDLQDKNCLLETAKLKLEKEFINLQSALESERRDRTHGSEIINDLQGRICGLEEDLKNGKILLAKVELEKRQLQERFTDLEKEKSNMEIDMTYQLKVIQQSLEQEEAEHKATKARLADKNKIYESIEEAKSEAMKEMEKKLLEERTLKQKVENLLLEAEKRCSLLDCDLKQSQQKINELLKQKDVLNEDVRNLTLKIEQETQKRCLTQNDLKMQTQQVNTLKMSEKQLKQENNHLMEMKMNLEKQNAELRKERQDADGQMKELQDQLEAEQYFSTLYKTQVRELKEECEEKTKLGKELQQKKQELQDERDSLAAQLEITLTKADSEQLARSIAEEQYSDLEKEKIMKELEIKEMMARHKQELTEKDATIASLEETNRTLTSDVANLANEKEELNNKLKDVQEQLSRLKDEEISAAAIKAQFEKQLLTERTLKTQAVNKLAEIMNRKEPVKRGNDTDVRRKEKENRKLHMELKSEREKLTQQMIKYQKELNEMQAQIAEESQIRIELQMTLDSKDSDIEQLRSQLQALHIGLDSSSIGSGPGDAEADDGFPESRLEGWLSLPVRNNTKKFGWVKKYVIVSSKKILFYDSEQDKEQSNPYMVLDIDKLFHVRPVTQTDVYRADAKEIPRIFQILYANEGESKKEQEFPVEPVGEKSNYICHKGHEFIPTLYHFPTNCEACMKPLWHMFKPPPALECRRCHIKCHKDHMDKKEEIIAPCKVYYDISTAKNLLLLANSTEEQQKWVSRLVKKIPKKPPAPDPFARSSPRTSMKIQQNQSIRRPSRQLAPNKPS
assay.comment: radiometric filter-binding kinase assay, Kinase HotSpot
assay.conditions: compound 0.5 µM; ATP 10 µM
readout.name: residual activity (%)

structure.string	measure.unit	endpoint.result
c1ccc2c(-c3ccncc3)c[nH]c2c1	%	71.9
COc1cc(Nc2c(C#N)cnc3cc(OCCCN4CCN(C)CC4)c(OC)cc23)c(Cl)cc1Cl	%	85
Cn1c2ccccc2c2c3c(c4c5ccccc5n(CCC#N)c4c21)CNC3=O	%	48.5
O=C1c2ccccc2-c2nc3nnnn3nc21	%	81.7
C[C@@H]1CCN(C(=O)CC#N)C[C@@H]1N(C)c1ncnc2[nH]ccc12	%	69.9
COc1ccc2c(c1)/C(=C/c1cnc[nH]1)C(O)=N2	%	87.4

* * *

target: CLK1 (human)
assay.comment: radiometric filter-binding kinase assay, Kinase HotSpot
assay.conditions: compound 0.5 µM; ATP 10 µM
Where residual activity equals or exceeds 90%, the correct label is Condition met; where it does not, the label is Condition not met.

structure.string	target	label.class
COc1cc2ncnc(Nc3ccc(OCc4ccccc4)cc3)c2cc1OC	CLK1 (human)	Condition met
COc1ccc(S(=O)(=O)N(CCO)c2ccccc2CN(C)C/C=C/c2ccc(Cl)cc2)cc1	CLK1 (human)	Condition met
O=C1Nc2ccc(Br)cc2/C1=C\c1cc2c([nH]1)CCCC2	CLK1 (human)	Condition met
O=C1C(Cl)=C(N2C(=O)CCC2=O)C(=O)c2ccccc21	CLK1 (human)	Condition met
Cc1cncc2cccc(S(=O)(=O)N3CCCN(C(=O)CN)C[C@H]3C)c12	CLK1 (human)	Condition met
N#C/C(=C\c1ccc(O)c(O)c1)C(=O)NCc1ccccc1	CLK1 (human)	Condition met
COc1ccc2c(c1)/C(=C/c1cnc[nH]1)C(O)=N2	CLK1 (human)	Condition not met
Cn1c2ccccc2c2c3c(c4c5ccccc5n(CCC#N)c4c21)CNC3=O	CLK1 (human)	Condition not met
CN(C)S(=O)(=O)c1ccc2c(c1)/C(=C/c1cc3c([nH]1)CCCC3)C(=O)N2	CLK1 (human)	Condition not met
COc1ccc(C(=O)Nc2sc3c(c2C(N)=O)CCCC3)cc1OC	CLK1 (human)	Condition met
NC(=O)c1cccc(-c2cc(Nc3ccc(OC(F)(F)F)cc3)ncn2)c1	CLK1 (human)	Condition met
C[C@@H]1CCN(C(=O)CC#N)C[C@@H]1N(C)c1ncnc2[nH]ccc12	CLK1 (human)	Condition met
O=C(c1cc2cc(O)ccc2[nH]1)c1cc2cc(O)ccc2[nH]1	CLK1 (human)	Condition not met
COc1cc(Nc2c(C#N)cnc3cc(OCCCN4CCN(C)CC4)c(OC)cc23)c(Cl)cc1Cl	CLK1 (human)	Condition not met
Fc1ccc(-c2nc3n(c2-c2ccncc2)CCS3)cc1	CLK1 (human)	Condition met
CN(C)c1ccc(/C=C2\C(=O)Nc3ccccc32)cc1	CLK1 (human)	Condition met
O=C1c2ccccc2-c2nc3nnnn3nc21	CLK1 (human)	Condition not met
COc1ccc2c(c1)c(C1=C(c3c[nH]c4ccccc34)C(=O)NC1=O)cn2CCCN(C)C	CLK1 (human)	Condition not met
Cc1nc(-c2ccccc2)c(-c2ccncc2)o1	CLK1 (human)	Condition met
CC(C)(C)c1cc(C=C(C#N)C#N)cc(Br)c1O	CLK1 (human)	Condition met
Ic1cccc(CSc2nnc(-c3ccncc3)o2)c1	CLK1 (human)	Condition met
